# assay_overview: XTT cytotoxicity assay, non-tumorigenic cells
# Assay type: cell-based, human
# experimental_setup: human, HEK-293 cells (nontumorigenic); HEK293, 50 μM; read-out: cell viability
readout_name: viability at 50 µM (%)
Give the value in % but do not write % after it.

Task item: Look up viability at 50 µM for this molecule: Cc1cc(C2=NCC(=CC#Cc3ccccc3)SC(c3ccc(Cl)cc3)=C2)ccc1F
Reply: 31.3

###

# assay_overview: XTT cytotoxicity assay, non-tumorigenic cells
# Type: cell-based, human
# experimental_setup: human, HEK-293 cells (nontumorigenic); HEK293, 1 μM; read-out: cell viability
readout_name: viability at 1 µM (%)
Dear colleague, please return just the value in %, with no unit written.

Task item: Which viability at 1 µM reading was recorded for the compound Cc1cc(C2=NCC(=CC#Cc3ccccc3)SC(c3ccc(Cl)cc3)=C2)ccc1F [TZEP7] ?
Reply: 57.1
